Test Summary: protein stability index of a GFP-peptide fusion (GPS, HEK-293T) (PSI 1-6); higher = more stable;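 further: 24-mer peptide tiles fused after GFP, lentivirally expressed, FACS-sorted into six equal bins by GFP/DsRed ratio, decoded by Illumina sequencing, PSI is the read-weighted mean bin number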
Study Conditions: treatment: DMSO; c terminus: a fixed tail appended
Assay Endpoint: protein stability index
No unit in the answer, only the number.

These recorded examples may help you get a feel for the data.
Biopolymer Sequence	Reported
GSLRTLELGSESQGASESQAPGEE [HDAC6]	5.52
EREAEKEQKRLERLQRKLVEPKHC [SDE2]	4.7
VTDYFFTLVQREEPLRILSKYHRF [CDS2]	2.45
APSIDLFSTDAFSSPPQGASPVPE [SNAP91]	4.94
DSLDEARSSGSEGTPADTGDLSPG [PWWP2B]	5.6

Query block: Which protein stability index is listed for SYYNSPGLHVQHMGTSHGITRPSP [CCDC6] ?
Result block: 3.2

Query block: Which protein stability index is listed for VNARQKQGIYEEYEDIRRENPVGT [PTPN9] ?
Result block: 4.83

Query block: Which protein stability index is listed for ECFETLRGDERILSILRHQNLLKE [CHGA] ?
Result block: 2.9

Query block: Which protein stability index is listed for LPLMDLCRRSIRSALGRQRLQDIS [SPSB4] ?
Result block: 2.62

Query block: Which protein stability index is listed for LTEIYRIVSQKQIADRAAHDESPG [RAB11B] ?
Result block: 3.52

Query block: Which protein stability index is listed for DPLFGMCEKFLQEVDFFQRYFIAD [INTS4] ?
Result block: 2.6

Query block: Which protein stability index is listed for TPMLNPLIYTLKNAEMKSAMRKLW [OR4A15] ?
Result block: 2.11

Query block: Which protein stability index is listed for TQELVAIKIIKNKKAFLNQAQIEL [DYRK1B] ?
Result block: 2.18

Source of measurements: the supplement of paper PMC10567573
